biological target: human PAD4 (Homo sapiens, UniProt Q9UM07); construct: human PAD4 (NM_012387), A2-P663, was PCR amplified; His-SUMO (N, cleaved yes); assay: In vitro PAD4 BAEE biochemical assay; conditions: BAEE substrate 3 mM, 5 nM PAD4, 2 mM calcium chloride; geometric mean of multiple experiments
Sequence (Q9UM07 2-663): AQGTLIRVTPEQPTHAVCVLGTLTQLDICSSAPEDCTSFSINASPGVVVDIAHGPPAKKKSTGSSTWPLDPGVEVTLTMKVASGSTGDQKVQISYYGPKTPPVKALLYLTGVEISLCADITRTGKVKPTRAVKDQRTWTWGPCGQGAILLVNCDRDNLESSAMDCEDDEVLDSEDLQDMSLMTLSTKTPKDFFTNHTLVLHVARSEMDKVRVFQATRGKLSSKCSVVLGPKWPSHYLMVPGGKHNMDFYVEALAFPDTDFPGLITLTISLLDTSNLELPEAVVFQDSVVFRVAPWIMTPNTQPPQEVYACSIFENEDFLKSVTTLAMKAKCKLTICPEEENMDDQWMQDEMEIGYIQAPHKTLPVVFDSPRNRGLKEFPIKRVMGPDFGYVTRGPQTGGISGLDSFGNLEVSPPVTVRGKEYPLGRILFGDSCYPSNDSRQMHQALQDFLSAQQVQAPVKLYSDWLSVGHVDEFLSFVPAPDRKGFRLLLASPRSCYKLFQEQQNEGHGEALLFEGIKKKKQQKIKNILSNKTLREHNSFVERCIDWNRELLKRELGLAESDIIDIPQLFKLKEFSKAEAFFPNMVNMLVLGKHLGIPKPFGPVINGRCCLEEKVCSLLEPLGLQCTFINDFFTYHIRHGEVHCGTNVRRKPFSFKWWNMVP

Molecule	IC50 (nM)
C[C@H]1NC(=O)[C@@H]2C[C@@H]2CCCCCn2c(-c3nc4cc(C(=O)N[C@H]5CNCC[C@@H]5F)c(F)cc4n3C)cc3ccc1nc32	40
COc1cc(C(=O)N2[C@H]3CC[C@@H]2[C@H](N)C3)cc2nc(-c3cc4ccc5nc4n3CCCCCCOCC(=O)N[C@@H]5C)c(C)n12	44
C[C@H]1NC(=O)[C@@H]2C[C@H]2CCCCCn2c(-c3nc4cc(C(=O)N5CC[C@@H](OC(F)F)[C@@H](N)C5)cc5c4n3CCO5)cc3ccc1nc32	185
COc1cc(C(=O)N2CCC[C@@H](N)C2)cc2nc(-c3cc4ccc5nc4n3C[C@H]3C[C@@H]3COC(C)CC(=O)N[C@@H]5C)n(C)c12 (some centres unmarked)	65
COc1cc(C(=O)N2C[C@H](N)[C@@H]3CC[C@H]2C3)cc2nc(-c3cc4ccc5nc4n3CCCCCc3nc(C(F)(F)F)ccc3C(=O)N[C@@H]5C)n(C3CC3)c12	82
COc1cc(C(=O)NC2CNCC[C@@H]2F)cc2nc(-c3cc4ccc5nc4n3C[C@H]3C[C@H]3CCC[C@@](C)(C(F)(F)F)C(=O)N[C@@H]5C)n(C)c12 (some centres unmarked)	254
COc1cc(C(=O)N2C[C@H](N)[C@@H]3CC[C@H]2C3)cc2nc(-c3cc4ccc5nc4n3CCCCCC[C@](c3ccccn3)(C(F)F)C(=O)N[C@@H]5C)n(C)c12	54
COc1cc(C(=O)N2[C@H]3CC[C@@H]2[C@H](N)C3)cc2nc(-c3cc4ccc5nc4n3CCCCCCCCC(=O)N3CCC[C@H]53)n(C)c12	21
